// values below are reported apparent KD of MS2 coat protein
# Test system: MS2 coat protein
# method.description: apparent KD of MS2 coat protein; designed switch direction (-1 OFF switch, 1 ON switch): -1; higher = weaker reporter binding
# conditions.used: input ligand: FMN 200 uM
Quote the value and follow it with the unit of measurement.

[[record]]
sequence_data = "UAGCUUUAUGUUAGGAUAUUCGCGCAUAUACUGCCGAAGAAGGAACAUGAGGAUCACCCAUGUACACGCCUAUG [Eternabot (L1) Solution 60] (Eterna round: R97, puzzle: Brourd's mod of Exclusion 4)"
system_name = "MS2 coat protein"
measured_parameter = "apparent KD of MS2 coat protein"
recorded_value = "81.1 nM"

[[record]]
sequence_data = "GGUUGGCGAGGAUAUACAUGAGGAUCACCCAUGUGAGAGAAAAAAGUGAGAACGAAAAGUAGAAGGCGCUGACG [salish99-ex3-25] (Eterna round: R96, puzzle: Exclusion 3)"
system_name = "MS2 coat protein"
measured_parameter = "apparent KD of MS2 coat protein"
recorded_value = "315 nM"


Kindly consider the entry below.
The recorded apparent KD of MS2 coat protein for entry UUCGCAAAAUUAGGUCCUAACAUGAGGAUCACCCAUGUUCUAGGUAAGUGCCUCCGCCCGCUAACUGUUCGUCUUGU [Eternabot (L1) Solution 36] (Eterna round: R97, puzzle: Sensor, turn-off variant 1) equals 23.1 nM

====

# Test system: MS2 coat protein
# method.description: apparent KD of MS2 coat protein; designed switch direction (-1 OFF switch, 1 ON switch): -1; higher = weaker reporter binding
# conditions.used: Eterna round: R95; input ligand: FMN 200 uM
measured.parameter: apparent KD of MS2 coat protein (µM)
Give the quantity in µM, number only.

Lab note: measured apparent KD of MS2 coat protein of GCAAUGAGUGUGAGGAUAUGCUGGUCCUUGGAUCAGCAGAAGGCACAUGAGGAUCACCCAUGUGAAAACAUUGC [Mat - Exclusion 4 - JL Mod - D63] (puzzle: Brourd's mod of Exclusion 4) was 0.147

// apparent KD of MS2 coat protein lookup, sequence = UAAUGCAGGUAAAGAUUCUACAUGAGGAUCACCCAUGUGCUCGUCUUAUAAAGUACUAUCACGAAAGUGAUAGUACA [Mat - Sensor v3 - turn-off var 1 - Eli Mod - D101] (puzzle: Sensor v3, turn-off variant 1) , result: 0.0276

For record GAUUAUGCGAGCUUUAGGGACAUGAGGAUCACCCAUGUUCGUCUUAUUGAUCUGGGUACACUGACAUACCUAAAUCU [JMF 70] (puzzle: Sensor v3, turn-off variant 1) the listed apparent KD of MS2 coat protein is 0.0888

Short answer for AUAAGCUUUGAGAUCCUUAACAUGAGGAUCACCCAUGUUCGUCUUAUGAUGGUCUGAUCCCUGAGGAUCGGACCGUA [Mat - Sensor v3 - turn-off var 1 - JL Mod - D1] (puzzle: Sensor v3, turn-off variant 1) : apparent KD of MS2 coat protein was 0.146

====

# System: MS2 coat protein
# method.description: apparent KD of MS2 coat protein; designed switch direction (-1 OFF switch, 1 ON switch): -1; higher = weaker reporter binding
# conditions.used: input ligand: FMN 200 uM
measured.parameter: apparent KD of MS2 coat protein (nM)
The reply should be a number in nM, with the unit left off.

[[record]]
sequence_data = "GCACGACAUCAGGAUAUGACUAGCUUCGGCUAGUCAGAAGGGAUGACAUGAGGAUCACCCAUGUGAUCACGUGC [E6/2-B1] (Eterna round: R97, puzzle: Exclusion 6)"
recorded_value = 122


Value (apparent KD of MS2 coat protein, MS2 coat protein) for record AGAGAAUACUCAGGAUAUCUGAAUAGAUAGAGAAGAGAAGGGAGACAUGAGGAUCACCCAUGUGAAGUCUUGAGGCUGCAUGGA [Prohibition 24 - Jieux - Exclusion NG 1] (Eterna round: R96, puzzle: Exclusion NG 1) = 165

// sequence AGGUGUAGAGGAUAUCUCUUCUCUCACAUGAGGAUCACCCAUGUCCUAAAGUCCUAGGAGAGAGAAGGCUACACCA [Omei Ex5 D3] (Eterna round: R97, puzzle: Exclusion 5) , assay MS2 coat protein, apparent KD of MS2 coat protein value: 230

====

# Tested on: K4 kissing-loop RNA reporter;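 further: bound reporter read as fluorescence of individual clusters on recovered sequencing chips by microscopy, with normalized cluster intensities fitted with a binding model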
# method.description: apparent KD of K4 kissing-loop reporter; higher = weaker reporter binding
# conditions.used: Eterna round: R107; input ligand: arginine 13.2 mM
sequences and their reported apparent KD of K4 kissing-loop reporter

Guide cases for apparent KD of K4 kissing-loop reporter, answers given:
[[record]]
sequence_data = "ACAGGAUCGAAAGAUCCUGAGCAGUCUAACCGAGGACCGGUACGGCCGCCACUCGGAGUGAUGUUCCGAGGACUGCAAAAUAAAA [#SwitchBubble 2 #CoaxialStacking]"
system_name = "K4 kissing-loop RNA reporter"
recorded_value = "305 nM"

[[record]]
sequence_data = "UUUCUACCGGGAAGGAGCGUGAAUGAUAAUGGAUAUAGUGAUGUUAUAUAUAAGAACGAAUCGCAGGUAGGUCGCCCGGAUGACU [SSArgB.S]"
system_name = "K4 kissing-loop RNA reporter"
recorded_value = "333 nM"

[[record]]
sequence_data = "UCCUAGGUCUUCAGGCGAAAGCCCUGCGAAGGAGCGUGCGAAAGCACAGGUAGGUCGCGCAGUGAUGUUGCACCUAGGUAAUAAA [#SwitchBubble 21 #K4Late]"
system_name = "K4 kissing-loop RNA reporter"
recorded_value = "111 nM"

[[record]]
sequence_data = "UGAUAGGACAGAAGGAGCGGUAGUGAUGUUGCCAAAAGGGUAAGGUGUCAAAAGACACCCUGCCAGGUAGGUCGCUGUCCUAUCU"
system_name = "K4 kissing-loop RNA reporter"
recorded_value = "93.8 nM"

[[record]]
sequence_data = "UGAGGAGAAUAUGAUACCAGCAGAGAGAGAGAGGAAGUAUAGUGAUGUUAUAUGAGAGAAUGCCCUUGGCAGCAUAAGAAGAAGG [SSTheophylB.B]"
system_name = "K4 kissing-loop RNA reporter"
recorded_value = "121 nM"


For AGCGAUGUUUUCUCUAAGAGUGAUGUUUUUCGAGGACCGGUACGGCCGCCACUCGAAUAAAGUGUGUGGUAGUGAGCUGUUGACA [#17 K4 Tryptophan A Exclusion] the sequence record lists apparent KD of K4 kissing-loop reporter as 606 nM

The sequence listed as GUAGGAUGAGGAGGAGGAUGAAUUACUGAAGGAGCGCAUAUUAAUGCAGGUAGGUCGCGGUAAAGAAGUAUAGUGAUGUUAUAUA [SSArgA.H] shows apparent KD of K4 kissing-loop reporter equal to 538 nM

Looking up GUGGUACAGGCGGCCGCCACUAGUGAUGUUAGUGAUAGAAGAUAUAGUAUAUAUCGGCAUUUAGUUAGGACCGGGCCUGGUGGUG [wwwrcmullin] , I found its apparent KD of K4 kissing-loop reporter recorded as 316 nM

For UUGGGCAACCGAGAUACCAGUCAAAUCGCUCUGGAGUGAUGUUCCGGAACAUGCGGAGAAGACCCUUGGCAGCUCAAGACGGACA [Exclusion Theophylline B GF 1] the sequence record lists apparent KD of K4 kissing-loop reporter as 107 nM

For this sequence ( UUAGUACAUAGAGAUACCAGCCAUCGAAGUGAUGUUUCGAGAAAUAAUGAUGUUGGUAUAGGCCCUUGGCAGCUCUAUGUACAUU [AK1 Exc Theophylline B] ), measured apparent KD of K4 kissing-loop reporter is 95.4 nM

Lab book: apparent KD of K4 kissing-loop reporter of UGAUACCAGACGGCCGCCACUCCCGUAAGUCAAAGACUUACGAAGAAGGUUUUUUAGUGAUGUUGGAGGACCGGGUCUGGUAUCU [FiskerMod 19 - Jieux - Exclusion - Tryptophan B] noted as 188 nM

So for GCCAGUGAUGUUGGCGAACCAACGCAUGCAGAGGAUAUUCGUUCGGGAAGAAGGCUGCAGCGUUCUCUCCCGCAGUGAUGUUGCG [Same State FMN A GF 25] , the logged apparent KD of K4 kissing-loop reporter turned out to be 141 nM

====

# System: MS2 coat protein
# method.description: apparent KD of MS2 coat protein; designed switch direction (-1 OFF switch, 1 ON switch): -1; higher = weaker reporter binding
# conditions.used: input ligand: FMN 200 uM
apparent KD of MS2 coat protein vs 0.1 µM: at or above is TRUE, below is FALSE.

hey, is apparent KD of MS2 coat protein for this one >= 0.1 µM? GCUGACAAGCUGGAGACAGCAGAGACAUGAGGAUCACCCAUGUAGGAUAUCGAUGCGAAAAGCAUCGAGAAGGGCAUAGUCAGC [exng3 v2 a] (Eterna round: R96, puzzle: Exclusion NG 3)
FALSE

Is apparent KD of MS2 coat protein for GUCGUGCGGCUUUGCUGUGCGGGUACAUGAGGAUCACCCAUGUAGGAUAUGGUACGCUUUGCGUGCCAGAAGGGCGUGCGUUGG [salish99_ExNG3_r04_008] (Eterna round: R96, puzzle: Exclusion NG 3) at or above 0.1 µM?
FALSE

I'd appreciate it if you could say whether UCCUCACAUGAGGAUCACCCAUGUUAGGAUAUCUUAUAGAGCUUGAGACAGUUCUUUAAGAGAAGGAACUGGGC [Exclusion 1 (MOD2.2 of Edarti)] (Eterna round: R97, puzzle: Exclusion 1) has apparent KD of MS2 coat protein at least equal to 0.1 µM.
TRUE

// inclusive: apparent KD of MS2 coat protein at least 0.1 µM? input: UAUUAGCAAGUGAGAUCCGACAUGAGGAUCACCCAUGUGCUCGUCUUAUAAGGUAAUAUAAGAAAACUUAUAUUACC [Elimod 6 - Jieux - Sensor, turn-off variant 1] (Eterna round: R97, puzzle: Sensor, turn-off variant 1)
TRUE

Hi team, for CCUUUGUCAGGAUAUCGUGCAUACAACGAAAGUUCUAUGUGCGAGAAGGGACAUGAGGAUCACCCAUGUUACGG [Omei Ex4 A3] (Eterna round: R97, puzzle: Exclusion 4) , is the recorded apparent KD of MS2 coat protein at or above 0.1 µM?
TRUE

The measurements presented in this section are drawn from the supplement of paper PMC9170038.
